Molecular target: N. gonorrhoeae PBP 2 (Neisseria gonorrhoeae)
Construct: A soluble construct of wild-type PBP 2; made in house
Experiment: FP high-throughput screening assay (Bocillin-FL binding to PBP 2)
Conditions: FP signal of individual compound with PBP 2 and Bocillin-FL; four replicates
Below, each entry is listed alongside its reported Compound (mP) (mean ± SD).
State the result as a value with its unit after it.

> print(dat)
                                   compound  reported.result
1  Sc1nnc(-c2ccc(Cl)cc2Cl)n1/N=C/C=C/c1ccco1 [Compound 3]     65.7±12.4 mP
2  O=S(=O)(Nc1ccc(O)c2ccccc12)c1cccc2ccccc12 [Compound 4]      35.6±2.1 mP
3  CN1C(=O)/C(=C2\SC(=S)NC2=O)c2cc(Br)ccc21 [Compound 7]     45.2±20.2 mP
4  CCc1ccc(O)c(/N=C/c2cc(I)cc(I)c2O)c1 [Compound 1]      31.4±0.1 mP
5  CCc1ccc(S(=O)(=O)Nc2ccc(O)c3ccccc23)cc1 [Compound 5]      43.3±0.8 mP

Query :: Hello, I am looking for reported Compound (mP) (mean ± SD) with N. gonorrhoeae PBP 2 (Neisseria gonorrhoeae) for O=Cc1cc(Cc2ccccc2)cc([N+](=O)[O-])c1O [Compound 2] . Could you help?
Result :: 60.4±20.3 mP

Query :: # returns recorded Compound (mP) (mean ± SD) (system: N. gonorrhoeae PBP 2 (Neisseria gonorrhoeae)) for O=c1sc2ccccc2c(O)c1C(c1ccccc1)c1c(O)c2ccccc2sc1=O [Compound 6]
Result :: 54.6±3.2 mP

----------
Target: N. gonorrhoeae PBP 2 (Neisseria gonorrhoeae)
Construct: A soluble construct of wild-type PBP 2; made in house
Assay: FP-based concentration-response competition assay with Bocillin-FL
Type: binding
Conditions: IC50 measured by FP, 0.01–200 µM compound, 1 µM PBP 2, 1 µM Bocillin-FL; four replicates
# note: exactly 50 µM is not below, so it is not satisfied; use satisfied for IC50 strictly under it

Query :: Is it true that IC50 reported for CCc1ccc(O)c(/N=C/c2cc(I)cc(I)c2O)c1 [Compound 1] is less than 50 µM?
Result :: not satisfied

Query :: IC50 under 50 µM? Item: CCc1ccc(S(=O)(=O)Nc2ccc(O)c3ccccc23)cc1 [Compound 5]
Result :: not satisfied

Query :: For this molecule, is IC50 lower than 50 µM? CN1C(=O)/C(=C2\SC(=S)NC2=O)c2cc(Br)ccc21 [Compound 7]
Result :: satisfied

Query :: Below 50 µM on IC50? Entry O=Cc1cc(Cc2ccccc2)cc([N+](=O)[O-])c1O [Compound 2]
Result :: not satisfied

Query :: Given Sc1nnc(-c2ccc(Cl)cc2Cl)n1/N=C/C=C/c1ccco1 [Compound 3] , is recorded IC50 strictly lower than 50 µM?
Result :: not satisfied

----------
Target: N. gonorrhoeae PBP 2 (Neisseria gonorrhoeae)
Construct: A soluble construct of wild-type PBP 2; made in house
Experiment: SDS-PAGE-based concentration-response assay with Bocillin-FL (0.01% Triton X-100)
Format: binding
Details: IC50, SDS-PAGE assay; 1 µM PBP 2, 10 µM Bocillin-FL, 0.01% Triton X-100
# pIC50 per record follows
Expect pIC50 as a plain number equal to -log10 of the molar concentration.

Worked examples follow.
> print(dat)
                                smiles.text  metric.name  reported.result
1  O=S(=O)(Nc1ccc(O)c2ccccc12)c1cccc2ccccc12        pIC50             4.30
2     O=Cc1cc(Cc2ccccc2)cc([N+](=O)[O-])c1O        pIC50             3.89
3  Sc1nnc(-c2ccc(Cl)cc2Cl)n1/N=C/C=C/c1ccco1        pIC50             3.05
4  CN1C(=O)/C(=C2\SC(=S)NC2=O)c2cc(Br)ccc21        pIC50             3.82
5       CCc1ccc(O)c(/N=C/c2cc(I)cc(I)c2O)c1        pIC50             3.66
6  O=c1sc2ccccc2c(O)c1C(c1ccccc1)c1c(O)c2ccccc2sc1=O        pIC50             4.31

Okay, next one:
Query :: Recorded pIC50 of CCc1ccc(S(=O)(=O)Nc2ccc(O)c3ccccc23)cc1 , please.
Result :: 4.25

----------
Target: N. gonorrhoeae PBP 2 (Neisseria gonorrhoeae)
Construct: A soluble construct of wild-type PBP 2; made in house
Test: FP-based concentration-response competition assay with Bocillin-FL
Format: binding
Settings: IC50 of penicillin G for PBP 2 (FP-based competition assay), without DMSO; 1 µM PBP 2, 1 µM Bocillin-FL
metric_name: pIC50
Field pIC50 (float): negative decimal logarithm of the concentration in molar.

Query :: For CC1(C)S[C@@H]2[C@H](NC(=O)Cc3ccccc3)C(=O)N2[C@H]1C(=O)O [Penicillin G, reference compound] , what is its reported pIC50?
Result :: 5.85

----------
Molecular target: N. gonorrhoeae PBP 2 (Neisseria gonorrhoeae)
Construct: A soluble construct of wild-type PBP 2; made in house
Test: SDS-PAGE-based concentration-response assay with Bocillin-FL (0.01% Triton X-100)
Assay type: binding
Settings: IC50 measured by SDS-PAGE, 0.01% Triton X-100; 1 µM PBP 2, 10 µM Bocillin-FL; two independent experiments
metric_name: pIC50
Schema: pIC50 number; meaning minus log10 of the concentration expressed in molar units.

These solved cases illustrate the format of a correct answer.
> print(dat)
                                smiles.text  reported.result
1  CN1C(=O)/C(=C2\SC(=S)NC2=O)c2cc(Br)ccc21             3.82
2  O=S(=O)(Nc1ccc(O)c2ccccc12)c1cccc2ccccc12             4.30

Query :: Given the molecule CCc1ccc(S(=O)(=O)Nc2ccc(O)c3ccccc23)cc1 , what is its reported pIC50?
Result :: 4.25

Query :: Look at this molecule and give its reported pIC50. O=c1sc2ccccc2c(O)c1C(c1ccccc1)c1c(O)c2ccccc2sc1=O
Result :: 4.31

Query :: Request the reported pIC50 associated with CCc1ccc(O)c(/N=C/c2cc(I)cc(I)c2O)c1
Result :: 3.65

Query :: Tell me the measured pIC50 of O=Cc1cc(Cc2ccccc2)cc([N+](=O)[O-])c1O , please.
Result :: 3.89

----------
Target: N. gonorrhoeae PBP 2 (Neisseria gonorrhoeae, UniProt P08149)
Construct: A soluble construct of wild-type PBP 2; made in house
Sequence (P08149 44-581 limits assumed): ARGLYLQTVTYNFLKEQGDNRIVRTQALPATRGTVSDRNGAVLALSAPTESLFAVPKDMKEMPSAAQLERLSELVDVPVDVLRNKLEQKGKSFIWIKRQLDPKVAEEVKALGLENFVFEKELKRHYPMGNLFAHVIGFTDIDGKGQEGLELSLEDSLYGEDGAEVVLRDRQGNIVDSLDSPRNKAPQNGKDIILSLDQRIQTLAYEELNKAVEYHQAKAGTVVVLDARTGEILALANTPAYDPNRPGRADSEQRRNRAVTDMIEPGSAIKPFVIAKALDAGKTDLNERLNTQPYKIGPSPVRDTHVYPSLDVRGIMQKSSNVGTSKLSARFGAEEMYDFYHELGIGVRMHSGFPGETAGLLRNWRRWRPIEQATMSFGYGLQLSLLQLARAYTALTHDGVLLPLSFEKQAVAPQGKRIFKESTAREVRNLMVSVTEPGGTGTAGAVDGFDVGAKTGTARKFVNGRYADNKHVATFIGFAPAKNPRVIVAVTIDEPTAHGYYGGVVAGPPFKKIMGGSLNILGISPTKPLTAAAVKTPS
Assay: FP high-throughput screening assay (Bocillin-FL binding to PBP 2)
Design: concentration or dose not given beside the values
Conditions: individual compounds; four replicates
Method: A soluble construct of wild-type PBP 2 from the penicillin-susceptible strain of N. gonorrhoeae FA19 was expressed and purified as described previously. Bocillin FL™ was obtained from Invitrogen Inc. (Carlsbad, CA). Penicillin G and γ-Globulins from bovine blood (BGG) were purchased from Sigma (St. Louis, MO). Prior to use, all reagents were diluted in an assay buffer comprising 50 mM potassium phosphate, pH 8, and 0.1 mg/ml BGG. […]
Threshold rule: Inhibition (%) of Bocillin-FL binding to PBP 2 greater than or equal to 90% is MET; below that, NOT MET.

> print(dat)
                                smiles.text    label
1     O=Cc1cc(Cc2ccccc2)cc([N+](=O)[O-])c1O  NOT MET
2  Sc1nnc(-c2ccc(Cl)cc2Cl)n1/N=C/C=C/c1ccco1  NOT MET

Query :: Check this molecule for Inhibition (%) of Bocillin-FL binding to PBP 2 at or above 90%: CCc1ccc(S(=O)(=O)Nc2ccc(O)c3ccccc23)cc1
Result :: MET

Query :: Inhibition (%) of Bocillin-FL binding to PBP 2 >= 90% for O=S(=O)(Nc1ccc(O)c2ccccc12)c1cccc2ccccc12 ?
Result :: MET

Query :: Given the entry CN1C(=O)/C(=C2\SC(=S)NC2=O)c2cc(Br)ccc21 , answer whether its Inhibition (%) of Bocillin-FL binding to PBP 2 meets or surpasses 90%.
Result :: MET

Query :: For this molecule, is measured Inhibition (%) of Bocillin-FL binding to PBP 2 90% or higher? CCc1ccc(O)c(/N=C/c2cc(I)cc(I)c2O)c1
Result :: MET

----------
Tested on: N. gonorrhoeae 35/02
Assay: MIC on GCB agar plates, strain 35/02
Format: cell-based
Details: Neisseria gonorrhoeae; penicillin-resistant, cephalosporin intermediate-resistant strain 35/02; read-out: MIC 35/02
Collected MIC values appear next to each entry.
Enter your answer as a number in µg/mL; do not include the unit.

Worked examples, 5 molecules total:
> print(dat)
                                   molecule  reported.result
1  CN1C(=O)/C(=C2\SC(=S)NC2=O)c2cc(Br)ccc21 [Compound 7]                8
2  CCc1ccc(S(=O)(=O)Nc2ccc(O)c3ccccc23)cc1 [Compound 5]               16
3  CCc1ccc(O)c(/N=C/c2cc(I)cc(I)c2O)c1 [Compound 1]               16
4  O=Cc1cc(Cc2ccccc2)cc([N+](=O)[O-])c1O [Compound 2]                8
5  O=S(=O)(Nc1ccc(O)c2ccccc12)c1cccc2ccccc12 [Compound 4]               16

Query :: Name the recorded MIC for Sc1nnc(-c2ccc(Cl)cc2Cl)n1/N=C/C=C/c1ccco1 [Compound 3] .
Result :: 32
